- test description: MTT cytotoxicity assay
- Assay type: cell-based
- assay context: human, HaCaT keratinocyte cells; HaCaT cells, MTT, 24 h, 37 °C, DMEM 10% FBS; three replicates; maximum concentration tested 512 µg/mL; mass of whole conjugate; read-out: inhibitory concentration (IC50), cytotoxicity
No end group written: not given here.
result type: CC50 at 24 h (µg/mL)

>  <sequence text>
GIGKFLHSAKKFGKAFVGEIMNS [Mag-2, reference compound]

>  <measured number>
258

$$$$

---

- test description: MTT cytotoxicity assay
- Assay type: cell-based
- assay context: human, HaCaT keratinocyte cells
No end group written: not given here.
result type: CC50 at 24 h (µg/mL)

>  <substance>
RLLRLLLRLLR-NH2 [TN6]

>  <result type>
CC50 at 24 h

>  <measured number>
161

$$$$

Data provenance is paper PMC10336128.
